- measurement-target: SXR (Homo sapiens)
- Sequence (O75469 146-433 limits assumed): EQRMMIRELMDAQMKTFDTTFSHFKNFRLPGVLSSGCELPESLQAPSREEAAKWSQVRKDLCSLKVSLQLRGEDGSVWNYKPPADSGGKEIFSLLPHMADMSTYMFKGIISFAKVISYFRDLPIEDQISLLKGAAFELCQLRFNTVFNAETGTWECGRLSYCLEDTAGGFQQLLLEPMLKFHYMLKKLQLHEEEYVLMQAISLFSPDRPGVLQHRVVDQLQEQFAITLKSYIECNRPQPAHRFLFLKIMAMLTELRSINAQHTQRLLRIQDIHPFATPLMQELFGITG
- experiment: GAL-SXR reporter assay
- Format: cell-based
- condition: ED50, GAL-SXR activation, CV-1 cells, 18–24 h, luciferase normalized by β-gal
result-type: EC50 (µM)
Quick reminder: number only, in µM, skip the unit.

(Q) Given the entry `COc1c2ccoc2c(OC)c2oc(=O)ccc12` , report its measured EC50.
(A) 35.5

---

- measurement-target: PXR (Mus musculus)
- experiment: GAL-PXR reporter assay
- Format: cell-based
- Sequence (O54915 143-430 limits assumed): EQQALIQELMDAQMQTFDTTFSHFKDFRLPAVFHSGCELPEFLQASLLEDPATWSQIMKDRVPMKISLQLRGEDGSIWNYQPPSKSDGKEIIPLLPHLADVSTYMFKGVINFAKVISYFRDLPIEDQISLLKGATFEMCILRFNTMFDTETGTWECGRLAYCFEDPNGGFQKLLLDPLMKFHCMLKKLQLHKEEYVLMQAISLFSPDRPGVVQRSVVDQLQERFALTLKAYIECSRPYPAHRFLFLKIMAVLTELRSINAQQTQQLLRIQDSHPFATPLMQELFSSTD
result-type: EC50

(Q) Given the entry COc1c2ccoc2c(OC)c2oc(=O)ccc12 [isopimpinellin, 5,8-dimethoxypsoralen] , report its measured EC50.
(A) ~17 µM

---

- measurement-target: PXR (Mus musculus)
- experiment: PXR-DR3 reporter assay
- Type: cell-based
- Sequence (O54915 whole entry, one chain of several): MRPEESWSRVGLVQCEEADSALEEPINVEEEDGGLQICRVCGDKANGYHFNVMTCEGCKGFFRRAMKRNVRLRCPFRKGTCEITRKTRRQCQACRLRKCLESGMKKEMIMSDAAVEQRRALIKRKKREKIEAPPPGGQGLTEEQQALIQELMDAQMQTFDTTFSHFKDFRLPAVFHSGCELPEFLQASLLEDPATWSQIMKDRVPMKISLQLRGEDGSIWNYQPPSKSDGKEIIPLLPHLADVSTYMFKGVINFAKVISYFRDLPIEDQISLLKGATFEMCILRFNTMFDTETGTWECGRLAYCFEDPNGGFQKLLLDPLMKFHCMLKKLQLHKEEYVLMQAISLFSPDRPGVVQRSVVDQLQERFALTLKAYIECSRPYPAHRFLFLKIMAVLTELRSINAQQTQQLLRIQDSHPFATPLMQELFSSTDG
result-type: pEC50
A value of pEC50 is the negative decimal logarithm of a concentration given in moles per litre.

(Q) PXR (Mus musculus) / pEC50 / COc1c2ccoc2c(OC)c2oc(=O)ccc12 [isopimpinellin, 5,8-dimethoxypsoralen] : value?
(A) 4.80

---

- Test system: P450 3A11
- experiment: Western blot of liver microsomes, P450 3A11 protein expression
- condition: C57BL/6 mice, 100 mg/kg p.o. 3 days
result-type: P450 3A11 protein expression (western blot densitometry)

compound: CCC1(c2ccccc2)C(=O)NC(=O)NC1=O [PB, Phenobarbital, reference compound]
measured: increased
//
compound: CC(C)=CCC/C(C)=C/COc1c2ccoc2cc2oc(=O)ccc12 [bergamottin]
measured: increased

---

- System: P450 2B10
- experiment: Western blot of liver microsomes, P450 2B10 protein expression
- condition: C57BL/6 mice, 100 mg/kg p.o. 3 days
result-type: P450 2B10 protein expression (western blot densitometry)

compound: CCC1(c2ccccc2)C(=O)NC(=O)NC1=O [PB, Phenobarbital, reference compound]
measured: increased
--
compound: CC(C)=CCC/C(C)=C/COc1c2ccoc2cc2oc(=O)ccc12 [bergamottin]
measured: increased

---

- measurement-target: SXR (Homo sapiens)
- experiment: SXR-DR3 reporter assay
- Assay type: cell-based
- Sequence (O75469 whole entry): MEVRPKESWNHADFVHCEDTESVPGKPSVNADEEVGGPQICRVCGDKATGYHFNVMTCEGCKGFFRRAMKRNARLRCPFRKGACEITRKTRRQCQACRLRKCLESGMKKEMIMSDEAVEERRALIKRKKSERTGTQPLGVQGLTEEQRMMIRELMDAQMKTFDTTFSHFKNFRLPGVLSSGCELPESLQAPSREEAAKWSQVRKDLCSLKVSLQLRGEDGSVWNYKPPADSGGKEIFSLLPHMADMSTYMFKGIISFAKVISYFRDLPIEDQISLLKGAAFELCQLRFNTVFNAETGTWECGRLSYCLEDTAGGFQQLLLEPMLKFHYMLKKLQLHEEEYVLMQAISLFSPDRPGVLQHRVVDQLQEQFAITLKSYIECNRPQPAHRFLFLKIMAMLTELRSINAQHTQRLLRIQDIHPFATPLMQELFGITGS
- Sequence (P19793 whole entry partner): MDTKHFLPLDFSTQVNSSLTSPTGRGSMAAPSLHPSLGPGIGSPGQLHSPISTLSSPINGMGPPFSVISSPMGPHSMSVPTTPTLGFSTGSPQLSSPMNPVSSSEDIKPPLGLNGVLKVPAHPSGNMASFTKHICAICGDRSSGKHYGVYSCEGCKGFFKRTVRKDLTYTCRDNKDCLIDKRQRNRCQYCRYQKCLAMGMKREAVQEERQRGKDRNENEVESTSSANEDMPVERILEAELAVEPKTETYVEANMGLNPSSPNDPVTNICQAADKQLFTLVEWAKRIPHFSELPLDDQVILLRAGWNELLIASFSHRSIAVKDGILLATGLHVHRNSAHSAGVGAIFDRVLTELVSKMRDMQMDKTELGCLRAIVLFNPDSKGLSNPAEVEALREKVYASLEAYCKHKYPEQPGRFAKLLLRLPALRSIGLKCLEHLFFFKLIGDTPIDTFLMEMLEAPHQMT
result-type: EC50 (µM)
Quick reminder: number only, in µM, skip the unit.

(Q) SXR (Homo sapiens) / EC50 / COc1c2ccoc2c(OC)c2oc(=O)ccc12 [isopimpinellin, 5,8-dimethoxypsoralen] : value?
(A) 39.8

---

- measurement-target: UniProt O75469
- Sequence (O75469 146-433 limits assumed): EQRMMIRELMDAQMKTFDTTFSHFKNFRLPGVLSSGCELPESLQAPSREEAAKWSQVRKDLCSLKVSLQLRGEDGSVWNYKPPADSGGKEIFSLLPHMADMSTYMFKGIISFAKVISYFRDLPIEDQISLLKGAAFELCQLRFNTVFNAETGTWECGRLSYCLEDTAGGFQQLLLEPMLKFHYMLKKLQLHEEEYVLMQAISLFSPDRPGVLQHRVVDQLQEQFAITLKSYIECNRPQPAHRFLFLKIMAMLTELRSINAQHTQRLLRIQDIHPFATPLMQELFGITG
- experiment: GAL-SXR reporter assay
- Assay type: cell-based
pEC50: −log10 of the molar value.
result-type: pEC50

(Q) Given the entry `COc1c2ccoc2c(OC)c2oc(=O)ccc12` , report its measured pEC50.
(A) ~4.46
